Please provide measured pIC50 for the entries that follow.
- Study target: human ALK2 R206H (Homo sapiens, UniProt Q04771, R206H)
- Construct: expressed in transfected cells; host or cells: HEK293 (ATCC CRL1573), lentivirus transduction, blasticidin selection
- Sequence (Q04771 21-509 R206H): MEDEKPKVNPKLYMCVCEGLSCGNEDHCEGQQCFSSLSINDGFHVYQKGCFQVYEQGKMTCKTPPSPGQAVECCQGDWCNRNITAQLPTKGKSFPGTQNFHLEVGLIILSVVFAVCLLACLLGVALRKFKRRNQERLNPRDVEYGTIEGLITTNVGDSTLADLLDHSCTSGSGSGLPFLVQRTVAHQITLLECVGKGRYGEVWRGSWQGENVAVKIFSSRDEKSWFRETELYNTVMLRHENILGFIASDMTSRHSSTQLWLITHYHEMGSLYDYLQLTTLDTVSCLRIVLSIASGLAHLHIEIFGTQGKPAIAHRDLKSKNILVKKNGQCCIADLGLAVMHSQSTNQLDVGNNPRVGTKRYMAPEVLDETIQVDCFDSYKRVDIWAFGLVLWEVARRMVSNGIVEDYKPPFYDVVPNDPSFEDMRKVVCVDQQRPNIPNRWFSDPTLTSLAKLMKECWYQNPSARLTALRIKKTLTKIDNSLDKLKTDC
- Assay: Cell-based ALK2-R206H cell activity assay (Smad1-Ser463/Ser465 phosphorylation by AlphaLISA in HEK293-ALK2-R206H cells)
- Condition description: phospho-Smad1 AlphaLISA, read-out: Cell Line (Cell Assay, IC50 class)
pIC50: −log10 of the molar value.

Completed entries (count: 10):
Notebook: O=C(C1CC1)N1CCN(c2ccnc3[nH]c(-c4ncco4)cc23)CC1 [Compound 1] , pIC50 read as < 6.30

Notebook: CCOC(=O)N1CCN(c2ccnc3[nH]c(-c4cn(C)nc4C#N)cc23)CC1 [Compound 69] , pIC50 read as ≥ 7.00

Notebook: CCOC(=O)N1CCN(c2ccnc3[nH]c(-c4cnn(C(C)C)c4)cc23)CC1 [Compound 96] , pIC50 read as ≥ 7.00

Notebook: COc1ccc(-c2cc3c(N4CCN(C(=O)C5CC5)CC4)ccnc3[nH]2)cc1 [Compound 60] , pIC50 read as 6.30 to 7.00

Notebook: O=C(OC1COC1)N1CCN(c2ccnc3[nH]c(-c4nc5c(s4)CSCC5)cc23)CC1 [Compound 417] , pIC50 read as ≥ 7.00

Notebook: CCN1CC[C@H](c2ccc(-c3cc4c(N5CCN(C(=O)C6CC6)CC5)ccnc4[nH]3)cc2)C(F)(F)C1 [Compound 459] , pIC50 read as ≥ 7.00

Notebook: O=C(C1CC1)N1CCN(c2ccnc3[nH]c(-c4ccc(OCCN5CCCC5)cc4)cc23)CC1 [Compound 421] , pIC50 read as ≥ 7.00

Notebook: Cc1cnc(-c2cc3c(N4CCN(C(=O)OC5COC5)CC4)ccnc3[nH]2)s1 [Compound 174] , pIC50 read as 6.30 to 7.00

Notebook: O=C(OCC(F)F)N1CCN(c2ccnc3[nH]c(-c4nc5c(s4)COCC5)c(Cl)c23)CC1 [Compound 449] , pIC50 read as ≥ 7.00

Notebook: CC(C)Oc1ccc(-c2cc3c(N4CCN(C(=O)C5CC5)CC4)ccnc3[nH]2)cc1 [Compound 194] , pIC50 read as ≥ 7.00

Provide reported pIC50 for each item, in the same order as listed.
1. CCCOC(=O)N1CCN(c2ccnc3[nH]c(-c4cnn(C)c4)cc23)CC1 [Compound 40]
2. Cn1cnc(-c2[nH]c3nccc(N4CCN(C(=O)O[C@H]5CCC5(F)F)CC4)c3c2C#N)c1 [Compound 369]
3. CC(C#N)Cn1cc(-c2cc3c(N4CCN(C(=O)OC5COC5)CC4)ccnc3[nH]2)cn1 (stereo not shown) [Compound 352]
4. O=C(OC1COC1)N1CCN(c2ccnc3[nH]c(-c4cn(C(F)F)cn4)cc23)CC1 [Compound 280]

*A*
6.30 to 7.00
≥ 7.00
6.30 to 7.00
≥ 7.00

Provide reported pIC50 for each item, in the same order as listed.
1. CCc1cnc(-c2cc3c(N4CCN(C(=O)OC5COC5)CC4)ccnc3[nH]2)s1 [Compound 249]
2. N#CC1(c2ccc(-c3cc4c(N5CCN(C(=O)C6CC6)CC5)ccnc4[nH]3)cc2)CC1 [Compound 241]

*A*
1: ≥ 7.00; 2: ≥ 7.00
